The reported numbers originate from paper PMC7561186.

Test system: S. aureus
Experiment: pH-dependent MIC determination
Format: cell-based
Conditions: Staphylococcus aureus; S. aureus ATCC 43300 (MRSA), pH 5.5
I'd be grateful if you could share measured MIC for these entries.
Write the number in ng/mL without appending the unit.

Sure, the documented MIC for Nc1nc(-n2cc(C(=O)O)c(=O)c3cc(F)c(N4CC(O)C4)c(Cl)c32)c(F)cc1F [Delafloxacin] is 0.5

Sure, the documented MIC for Cc1[nH]c(C(=O)Nc2nc3ccc(C(=O)O)cc3s2)c(Cl)c1Cl [ULD1] is 4

Sure, the documented MIC for Cc1[nH]c(C(=O)Nc2nc3c(OCc4ccccc4)cc(C(=O)O)cc3s2)c(Cl)c1Cl [ULD2] is 8

Sure, the documented MIC for CN[C@H](CC(C)C)C(=O)N[C@H]1C(=O)N[C@@H](CC(N)=O)C(=O)N[C@H]2C(=O)N[C@H]3C(=O)N[C@H](C(=O)N[C@H](C(=O)O)c4cc(O)cc(O)c4-c4cc3ccc4O)[C@H](O)c3ccc(c(Cl)c3)Oc3cc2cc(c3O[C@@H]2O[C@H](CO)[C@@H](O)[C@H](O)[C@H]2O[C@H]2C[C@](C)(N)[C@H](O)[C@H](C)O2)Oc2ccc(cc2Cl)[C@H]1O [Vancomycin] is 2000
